Molecular target: furin (Homo sapiens, UniProt P09958)
Construct: made in house; host or cells: Drosophila S2 cells (Invitrogen expression system)
Sequence (P09958 108-794 limits assumed): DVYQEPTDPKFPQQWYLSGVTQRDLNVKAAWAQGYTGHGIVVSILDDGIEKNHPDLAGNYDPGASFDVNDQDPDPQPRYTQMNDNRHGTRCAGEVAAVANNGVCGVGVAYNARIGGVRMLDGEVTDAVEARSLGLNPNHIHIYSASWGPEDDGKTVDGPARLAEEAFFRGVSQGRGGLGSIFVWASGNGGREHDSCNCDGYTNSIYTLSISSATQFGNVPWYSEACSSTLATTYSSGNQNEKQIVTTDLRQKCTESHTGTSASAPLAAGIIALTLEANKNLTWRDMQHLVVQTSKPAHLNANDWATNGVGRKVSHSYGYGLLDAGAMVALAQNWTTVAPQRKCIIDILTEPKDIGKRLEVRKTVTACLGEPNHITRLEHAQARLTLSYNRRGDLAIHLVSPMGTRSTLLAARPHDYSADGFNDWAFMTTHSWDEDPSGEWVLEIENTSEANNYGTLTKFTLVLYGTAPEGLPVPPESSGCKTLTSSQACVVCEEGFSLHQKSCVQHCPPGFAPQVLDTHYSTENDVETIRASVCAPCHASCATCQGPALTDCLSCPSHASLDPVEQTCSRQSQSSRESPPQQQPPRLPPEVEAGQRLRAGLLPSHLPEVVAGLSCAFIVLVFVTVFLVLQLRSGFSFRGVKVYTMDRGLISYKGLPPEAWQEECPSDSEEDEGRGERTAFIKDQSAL
Test: biochemical
Conditions: furin, Pyr-RTKR-AMC substrate; optimization of the inhibitory peptides (Table 3); read-out: Ki
pKi: −log10 of the molar value. Non-standard residues stand in square brackets, D forms with d. Residues, ends and D or L forms follow the SMILES beside them. Nle = CCCC[C@H](N)C(=O)O
observed-property: pKi

- molecule: "C[C@H](NC(=O)[C@H](CCCNC(=N)N)NC(=O)[C@H](CCC(N)=O)NC(=O)[C@@H]1CCCN1C(=O)[C@@H](N)[C@@H](C)O)C(=O)N[C@@H](CCCNC(=N)N)C(=O)N[C@@H](CCCNC(=N)N)C(=O)N[C@@H](CCCNC(=N)N)C(=O)N[C@@H](CCCCN)C(=O)N[C@@H](CCCCN)C(=O)N[C@@H](CCCNC(=N)N)C(=O)N[C@@H](CCCCN)C(N)=O (H-TPQRARRRKKRK-NH2)"
  pKi: "< 7.00"
- molecule: "C[C@@H](O)[C@H](N)C(=O)N1CCC[C@H]1C(=O)N[C@@H](CCC(N)=O)C(=O)N[C@@H](CCCNC(=N)N)C(=O)N[C@@H](CC(N)=O)C(=O)N[C@@H](CCCNC(=N)N)C(=O)N[C@@H](CCCNC(=N)N)C(=O)N[C@@H](CCCNC(=N)N)C(=O)N[C@@H](CCCCN)C(=O)N[C@@H](CCCCN)C(=O)N[C@@H](CCCNC(=N)N)C(=O)NCC(N)=O (H-TPQRNRRRKKRG-NH2)"
  pKi: "< 7.00"

Now look at this one.
Challenge: Consider the molecule CCCC[C@H](NC(=O)[C@H](CCCNC(=N)N)NC(=O)[C@H](CCCCN)NC(=O)[C@H](CCCCN)NC(=O)[C@H](CCCNC(=N)N)NC(=O)[C@H](CCCNC(=N)N)NC(=O)[C@H](CCCNC(=N)N)NC(=O)[C@H](C)NC(=O)[C@H](CCCNC(=N)N)NC(=O)[C@H](CCC(N)=O)NC(=O)[C@@H]1CCCN1C(=O)[C@@H](N)[C@@H](C)O)C(N)=O (H-TPQRARRRKKR[Nle]-NH2) and give its measured pKi.
Response given: < 7.00

====

Target: furin (Homo sapiens, UniProt P09958)
Construct: made in house; host or cells: Drosophila S2 cells (Invitrogen expression system)
Experiment: biochemical
Conditions: furin, Pyr-RTKR-AMC substrate; optimization of the inhibitory peptides (Table 3); read-out: Ki
Residues, ends and D or L forms follow the SMILES beside them.
observed-property: Ki

Past entries and their recorded results:
- compound: "C[C@H](NC(=O)[C@H](CCCNC(=N)N)NC(=O)[C@H](CCC(N)=O)NC(=O)[C@@H]1CCCN1C(=O)[C@@H](N)[C@@H](C)O)C(=O)N[C@@H](CCCNC(=N)N)C(=O)N[C@@H](CCCNC(=N)N)C(=O)N[C@@H](CCCNC(=N)N)C(=O)N[C@@H](CCCCN)C(=O)N[C@@H](CCCCN)C(=O)N[C@@H](CCCNC(=N)N)C(=O)N[C@@H](CCC(N)=O)C(N)=O (H-TPQRARRRKKRQ-NH2)"
  target-system: "furin (Homo sapiens, UniProt P09958)"
  test-value: "> 0.1 µM"
- compound: "C[C@H](NC(=O)[C@H](CCCNC(=N)N)NC(=O)[C@H](CCC(N)=O)NC(=O)[C@@H]1CCCN1C(=O)[C@@H](N)[C@@H](C)O)C(=O)N[C@@H](CCCNC(=N)N)C(=O)N[C@@H](CCCNC(=N)N)C(=O)N[C@@H](CCCNC(=N)N)C(=O)N[C@@H](CCCCN)C(=O)N[C@@H](CCCCN)C(=O)N[C@@H](CCCNC(=N)N)C(=O)N[C@@H](CCC(=O)O)C(N)=O (H-TPQRARRRKKRE-NH2)"
  target-system: "furin (Homo sapiens, UniProt P09958)"
  test-value: "0.103 µM"
- compound: "C[C@@H](O)[C@H](N)C(=O)N1CCC[C@H]1C(=O)N[C@@H](CCC(N)=O)C(=O)N[C@@H](CCCNC(=N)N)C(=O)NCCC(=O)N[C@@H](CCCNC(=N)N)C(=O)N[C@@H](CCCNC(=N)N)C(=O)N[C@@H](CCCNC(=N)N)C(=O)N[C@@H](CCCCN)C(=O)N[C@@H](CCCCN)C(=O)N[C@@H](CCCNC(=N)N)C(=O)NCC(N)=O [TPQR1RRRKKRG]"
  target-system: "furin (Homo sapiens, UniProt P09958)"
  test-value: "> 0.1 µM"
- compound: "C[C@H](NC(=O)[C@H](CCCNC(=N)N)NC(=O)[C@H](CCC(N)=O)NC(=O)[C@@H]1CCCN1C(=O)[C@@H](N)[C@@H](C)O)C(=O)N[C@@H](CCCNC(=N)N)C(=O)N[C@@H](CCCNC(=N)N)C(=O)N[C@@H](CCCNC(=N)N)C(=O)N[C@@H](CCCCN)C(=O)N[C@@H](CCCCN)C(=O)N[C@@H](CCCNC(=N)N)C(=O)N[C@@H](Cc1ccc(O)cc1)C(N)=O (H-TPQRARRRKKRY-NH2)"
  target-system: "furin (Homo sapiens, UniProt P09958)"
  test-value: "0.047 µM"
- compound: "C[C@@H](O)[C@H](N)C(=O)N1CCC[C@H]1C(=O)N[C@@H](CCC(N)=O)C(=O)N[C@@H](CCCNC(=N)N)C(=O)N[C@@H](Cc1ccccc1)C(=O)N[C@@H](CCCNC(=N)N)C(=O)N[C@@H](CCCNC(=N)N)C(=O)N[C@@H](CCCNC(=N)N)C(=O)N[C@@H](CCCCN)C(=O)N[C@@H](CCCCN)C(=O)N[C@@H](CCCNC(=N)N)C(=O)NCC(N)=O (H-TPQRFRRRKKRG-NH2)"
  target-system: "furin (Homo sapiens, UniProt P09958)"
  test-value: "> 0.1 µM"

Challenge: Could you tell me which Ki is on file for CC[C@H](C)[C@H](NC(=O)[C@H](CCCNC(=N)N)NC(=O)[C@H](CCC(N)=O)NC(=O)[C@@H]1CCCN1C(=O)[C@@H](N)[C@@H](C)O)C(=O)N[C@@H](CCCNC(=N)N)C(=O)N[C@@H](CCCNC(=N)N)C(=O)N[C@@H](CCCNC(=N)N)C(=O)N[C@@H](CCCCN)C(=O)N[C@@H](CCCCN)C(=O)N[C@@H](CCCNC(=N)N)C(=O)NCC(N)=O (H-TPQRIRRRKKRG-NH2) ?
Response given: > 0.1 µM

Challenge: Item C[C@@H](O)[C@H](N)C(=O)N1CCC[C@H]1C(=O)N[C@@H](CCC(N)=O)C(=O)N[C@@H](CCCNC(=N)N)C(=O)N[C@@H](CCCCN)C(=O)N[C@@H](CCCNC(=N)N)C(=O)N[C@@H](CCCNC(=N)N)C(=O)N[C@@H](CCCNC(=N)N)C(=O)N[C@@H](CCCCN)C(=O)N[C@@H](CCCCN)C(=O)N[C@@H](CCCNC(=N)N)C(=O)NCC(N)=O has what recorded Ki?
Response given: > 0.1 µM

Challenge: Give the measured Ki of CSCC[C@H](NC(=O)[C@H](CCCNC(=N)N)NC(=O)[C@H](CCC(N)=O)NC(=O)[C@@H]1CCCN1C(=O)[C@@H](N)[C@@H](C)O)C(=O)N[C@@H](CCCNC(=N)N)C(=O)N[C@@H](CCCNC(=N)N)C(=O)N[C@@H](CCCNC(=N)N)C(=O)N[C@@H](CCCCN)C(=O)N[C@@H](CCCCN)C(=O)N[C@@H](CCCNC(=N)N)C(=O)NCC(N)=O .
Response given: > 0.1 µM

====

The entries below are paired with their reported Ki.
Biological target: PACE4
Assay: Ki, μM | PACE4
Write the answer as a number in µM, unit excluded.

- sequence-input: "TPQRARRRKKRF"
  Ki / µM: 0.602

Challenge: Suppose we examine the sequence TPRARRRKKRI ; what Ki value has been reported?
Response given: 0.026

Challenge: Sample TPQRARRRKKRY — what was its Ki?
Response given: 1.02

Challenge: Give its Ki value. Item: TPQRARRRKKRW
Response given: 0.192

====

Molecular target: furin (Homo sapiens, UniProt P09958)
Construct: made in house; host or cells: Drosophila S2 cells (Invitrogen expression system)
Experiment: biochemical
Settings: furin, Pyr-RTKR-AMC substrate; alanine scanning mutagenesis of the H5 furin cleavage sequence (Table 2); read-out: Ki
Residues, ends and D or L forms follow the SMILES beside them.
observed-property: Ki

- compound: "CC(C)[C@H](NC(=O)[C@H](CCCNC(=N)N)NC(=O)[C@H](C)NC(=O)[C@H](CCCCN)NC(=O)[C@H](CCCNC(=N)N)NC(=O)[C@H](CCCNC(=N)N)NC(=O)[C@H](CCCNC(=N)N)NC(=O)[C@H](CCC(=O)O)NC(=O)[C@H](CCCNC(=N)N)NC(=O)[C@@H]1CCCN1C(=O)[C@@H](N)[C@@H](C)O)C(N)=O (H-TPRERRRKARV-NH2)"
  observed-property: "Ki"
  test-value: "> 100 nM"
- compound: "CC(C)[C@H](NC(=O)[C@H](CCCNC(=N)N)NC(=O)[C@H](C)NC(=O)[C@H](C)NC(=O)[C@H](CCCNC(=N)N)NC(=O)[C@H](CCCNC(=N)N)NC(=O)[C@H](CCCNC(=N)N)NC(=O)[C@H](CCC(=O)O)NC(=O)[C@H](CCCNC(=N)N)NC(=O)[C@@H]1CCCN1C(=O)[C@@H](N)[C@@H](C)O)C(N)=O (H-TPRERRRAARV-NH2)"
  observed-property: "Ki"
  test-value: "> 100 nM"

Then this compound:
Challenge: What value of Ki on furin (Homo sapiens, UniProt P09958) does C[C@H](NC(=O)[C@H](C)NC(=O)[C@H](CCCNC(=N)N)NC(=O)[C@H](CCC(=O)O)NC(=O)[C@H](CCCNC(=N)N)NC(=O)[C@@H]1CCCN1C(=O)[C@@H](N)[C@@H](C)O)C(=O)N[C@@H](CCCCN)C(=O)N[C@@H](CCCCN)C(=O)N[C@@H](CCCNC(=N)N)C(=O)NCC(N)=O (H-TPRERAAKKRG-NH2) have?
Response given: > 100 nM
